Reported protein stability index values are given for each entry in this list.
B1: FAM107A (parent)
chain: HRRGLGVDSKPELQRVLEHRRRNQ

# Variants of: B1
# measurement-notes: protein stability index of a GFP-peptide fusion (GPS, HEK-293T) (PSI 1-6); higher = more stable;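 note: lentivirally expressed fusions sorted by FACS into six bins by GFP to DsRed ratio, PSI derived from sequencing read proportions per bin multiplied by bin number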
# condition-summary: c terminus: a fixed tail appended
Just the number, please, no unit after it.

change: P11V
reported: 3.95
--
change: R2H
reported: 4.05

Qu. Dear colleague, I am looking for the recorded protein stability index of the following variant: `V16H`
Ans. 3.96

Qu. Dear colleague, I am looking for the recorded protein stability index of the following variant: `D8R`
Ans. 4.26

Qu. Dear colleague, I am looking for the recorded protein stability index of the following variant: `P11R`
Ans. 4.13

Qu. Dear colleague, I am looking for the recorded protein stability index of the following variant: `R20E`
Ans. 4.33

Qu. Dear colleague, I am looking for the recorded protein stability index of the following variant: `H19D`
Ans. 5.29

Qu. Dear colleague, I am looking for the recorded protein stability index of the following variant: `L5H`
Ans. 4.21

Qu. Dear colleague, I am looking for the recorded protein stability index of the following variant: `R3Q`
Ans. 3.65

Qu. Dear colleague, I am looking for the recorded protein stability index of the following variant: `L5F`
Ans. 4.13

Qu. Dear colleague, I am looking for the recorded protein stability index of the following variant: `H1K`
Ans. 4.53
